IC50 for assorted binders
molecular target: T1, human PD-1 expressed on cells (human, UniProt Q15116 25-288); test: cell RBA FACS; competitor PD-L1/Fc
T1 construct: whole, on cells; also called CHO-K1/huPD-1; CHO-K1-hPD-1 cells
T1 sequence (Q15116 25-288): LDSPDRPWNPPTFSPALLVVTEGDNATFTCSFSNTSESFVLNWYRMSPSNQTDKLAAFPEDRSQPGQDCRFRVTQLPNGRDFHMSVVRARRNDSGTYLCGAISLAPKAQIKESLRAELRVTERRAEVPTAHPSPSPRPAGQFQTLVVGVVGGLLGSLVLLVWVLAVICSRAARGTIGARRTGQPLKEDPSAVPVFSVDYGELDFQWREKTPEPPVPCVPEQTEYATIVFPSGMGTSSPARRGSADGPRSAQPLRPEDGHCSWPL
# unit: nM | format: bare number

Reported IC50 for HumAb713-8 (antibody, human IgG1, kappa, L234A L235A, V domains shown, humanized mAb713; also called HurnAb713-8) VH: EVQLVESGGGLVQPGGSLRLSCAASGFTSSDYGMHWVRQAPGKGLEWVAYISSGSYTIYYADTVKGRFTISRDNAKNSLYLQMNSLRDEDTAVYYCAKRGGSSHVNVMDYWGQGTTVTVSS VL: DIQMTQSPSSLSASVGDRVTITCKASDHINNWLAWYQQKPGKAPKLLIYGATSLETGVPSRFSGSGSGTDYTFTISSLQPEDIATYYCQQYWSPPYTFGGGTKVEIKR : what is it?
1.05

Follow-up item: HumAb713-14 (antibody, human IgG1, kappa, L234A L235A, V domains shown, humanized mAb713) VH: EVQLVESGGGLVQPGGSLRLSCAASGFTFSDYGMHWVRQAPGKGLEWVSYISSGSYTIYYADTVKGRFTISRDNAKNSLYLQMNSLRDEDTAVYYCAKRGGSSHVNVMDYWGQGTTVTVSS VL: DIQMTQSPSSLSASVGDRVTITCKASDHINNWLAWYQQKPGKAPKLLISGATSLETGVPSRFSGSGSGKDYTFTISSLQPEDIATYYCQQYWSPPYTFGGGTKVEIKR
0.91

Data provenance is patent US20210188980A1.
